- System: HL-60(TB) leukemia
- assay comment: NCI-60 one-dose screen, 48 h (100 = growth as untreated, 0 = no growth, -100 = all killed)
- condition context: 10 µM unless noted
Compounds without any hit were thinned out: in the full panel of roughly 83,000, 20% have a hit. Calls of active or inactive are those of the source. The calls were made as follows: active = growth percent below 10; inactive = the rest.
Reported growth values for the following compounds.

Prompt: Consider the compound shown here: O=C(Nc1ccc(F)cc1)Nc1nc2ccc([N+](=O)[O-])cc2s1 What is its recorded growth?
Completion: -11.5% (active)

Prompt: Consider the compound shown here: COc1ccc2[nH]c(O)c(N=Nc3nc(-c4ccc(Br)cc4)cs3)c2c1 What is its recorded growth?
Completion: 73.5% (inactive)

Prompt: Consider the compound shown here: Cc1ccc(C(=O)CSc2nnc(-c3c[nH]c4ccccc34)n2-c2ccccc2)cc1 What is its recorded growth?
Completion: 43.3% (inactive)

Prompt: Consider the compound shown here: CCOc1ccc(-c2c(C#N)c(-c3ccc(Cl)cc3)nc3n[nH]c(-c4ccc(Cl)cc4)c23)cc1OC What is its recorded growth?
Completion: 4.06% (active)

Prompt: Consider the compound shown here: COc1cc2c(c(OC)c1OC)C(=O)CC(c1cccc(NC(=O)c3cc([N+](=O)[O-])ccc3Cl)c1)O2 (stereo not given) What is its recorded growth?
Completion: 34.1% (inactive)
